Provenance of the data: ChEMBL document CHEMBL1126638

- Tested on: MT4
- Run Description: Anti HIV-1 activity in human lymphocyte MT-4 cell line
- Format: functional, cell-based
Measured Attribute: EC50 (nM)
Write it as a number; the unit nM goes unstated.

Would you kindly share the measured EC50 for COC(=O)C(C)NP(=O)(OCC1OC(n2cc(C)c(=O)[nH]c2=O)CC1N=[N+]=[N-])Oc1ccc(OC)cc1 (centres undefined) ? 71

Would you kindly share the measured EC50 for COC(=O)C(C)NP(=O)(OCC1OC(n2cc(C)c(=O)[nH]c2=O)CC1N=[N+]=[N-])Oc1ccc(C)cc1 (centres undefined) ? 51

Would you kindly share the measured EC50 for COC(=O)CNP(=O)(OCC1OC(n2cc(C)c(=O)[nH]c2=O)CC1N=[N+]=[N-])Oc1ccccc1 (centres undefined) ? 160

Would you kindly share the measured EC50 for CCCCCc1ccc(OP(=O)(NC(C)C(=O)OC)OCC2OC(n3cc(C)c(=O)[nH]c3=O)CC2N=[N+]=[N-])cc1 (centres undefined) ? 103

###

- Test system: MT4
- Run Description: Anti HIV-1 activity in human lymphocyte MT-4 cell line
- Format: functional, cell-based
Please respond with reported EC50 for every item in the list.
Write it as a number; the unit nM goes unstated.

Would you kindly share the measured EC50 for COC(=O)C(NP(=O)(OCC1OC(n2cc(C)c(=O)[nH]c2=O)CC1N=[N+]=[N-])Oc1ccccc1)C(C)C (stereo not drawn) ? 99

Would you kindly share the measured EC50 for Cc1cn([C@H]2C[C@H](N=[N+]=[N-])[C@@H](CO)O2)c(=O)[nH]c1=O [ZIDOVUDINE] ? 2

Would you kindly share the measured EC50 for COC(=O)C(Cc1ccccc1)NP(=O)(OCC1OC(n2cc(C)c(=O)[nH]c2=O)CC1N=[N+]=[N-])Oc1ccccc1 (stereo not drawn) ? 80

###

- Test system: CCRF-CEM
- Run Description: Anti HIV-1 activity in human lymphocyte CEM/0 cell line
- Format: functional, cell-based
Measured Attribute: pEC50
As a rule, pEC50 stands for the negative log10 of the concentration, concentration in M.

Would you kindly share the measured pEC50 for COC(=O)C(C)NP(=O)(OCC1OC(n2cc(C)c(=O)[nH]c2=O)CC1N=[N+]=[N-])Oc1ccc(C)cc1 (configuration not stated) ? 7.19

Would you kindly share the measured pEC50 for CCCCCc1ccc(OP(=O)(NC(C)C(=O)OC)OCC2OC(n3cc(C)c(=O)[nH]c3=O)CC2N=[N+]=[N-])cc1 (configuration not stated) ? 7.29

Would you kindly share the measured pEC50 for Cc1cn([C@H]2C[C@H](N=[N+]=[N-])[C@@H](CO)O2)c(=O)[nH]c1=O [ZIDOVUDINE] ? 8.52

Would you kindly share the measured pEC50 for COC(=O)C(Cc1ccccc1)NP(=O)(OCC1OC(n2cc(C)c(=O)[nH]c2=O)CC1N=[N+]=[N-])Oc1ccccc1 (configuration not stated) ? 7.01

Would you kindly share the measured pEC50 for COC(=O)[C@H](C)NP(=O)(OC[C@H]1O[C@@H](n2cc(C)c(=O)[nH]c2=O)C[C@@H]1N=[N+]=[N-])Oc1ccccc1 (some centres not stated) ? 7.26

Would you kindly share the measured pEC50 for COC(=O)C(C)NP(=O)(OCC1OC(n2cc(C)c(=O)[nH]c2=O)CC1N=[N+]=[N-])Oc1ccc(F)cc1 (configuration not stated) ? 7.32

Would you kindly share the measured pEC50 for COC(=O)C(NP(=O)(OCC1OC(n2cc(C)c(=O)[nH]c2=O)CC1N=[N+]=[N-])Oc1ccccc1)C(C)C (configuration not stated) ? 6.85
